Measured Metric: pIC50
In textbook form, pIC50 equals minus log to base ten of the concentration in mol/L.

Query: State measured pIC50 of the molecule CN1C(=O)[C@@H](N2CCc3c(nn(Cc4ccccc4)c3Br)C2=O)COc2ccccc21 with Ribosomal protein S6 kinase alpha-2 (Homo sapiens, UniProt Q15349).
Sequence (Q15349 whole entry): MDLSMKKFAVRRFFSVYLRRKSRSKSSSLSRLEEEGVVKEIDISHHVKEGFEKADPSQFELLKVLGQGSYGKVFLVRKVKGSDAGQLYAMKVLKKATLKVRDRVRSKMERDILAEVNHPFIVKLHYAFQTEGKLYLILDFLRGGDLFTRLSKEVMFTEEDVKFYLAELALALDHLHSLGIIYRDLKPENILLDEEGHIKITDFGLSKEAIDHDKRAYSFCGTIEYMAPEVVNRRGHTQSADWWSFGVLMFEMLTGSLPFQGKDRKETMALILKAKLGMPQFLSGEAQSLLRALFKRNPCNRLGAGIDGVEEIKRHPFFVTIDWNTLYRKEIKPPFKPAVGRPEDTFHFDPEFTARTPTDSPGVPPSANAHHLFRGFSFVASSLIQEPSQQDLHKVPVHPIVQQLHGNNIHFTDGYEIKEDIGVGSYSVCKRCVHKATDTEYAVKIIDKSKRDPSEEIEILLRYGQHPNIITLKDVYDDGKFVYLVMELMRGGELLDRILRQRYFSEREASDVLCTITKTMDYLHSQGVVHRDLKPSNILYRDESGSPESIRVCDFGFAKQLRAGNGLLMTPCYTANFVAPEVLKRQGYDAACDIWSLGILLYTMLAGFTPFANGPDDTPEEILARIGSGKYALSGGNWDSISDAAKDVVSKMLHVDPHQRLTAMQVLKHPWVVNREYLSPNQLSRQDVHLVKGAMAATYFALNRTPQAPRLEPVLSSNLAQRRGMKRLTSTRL
Reply: 6.00

---

molecular target: Cell division cycle 7-related protein kinase (Homo sapiens, UniProt O00311)
Sequence (O00311 whole entry): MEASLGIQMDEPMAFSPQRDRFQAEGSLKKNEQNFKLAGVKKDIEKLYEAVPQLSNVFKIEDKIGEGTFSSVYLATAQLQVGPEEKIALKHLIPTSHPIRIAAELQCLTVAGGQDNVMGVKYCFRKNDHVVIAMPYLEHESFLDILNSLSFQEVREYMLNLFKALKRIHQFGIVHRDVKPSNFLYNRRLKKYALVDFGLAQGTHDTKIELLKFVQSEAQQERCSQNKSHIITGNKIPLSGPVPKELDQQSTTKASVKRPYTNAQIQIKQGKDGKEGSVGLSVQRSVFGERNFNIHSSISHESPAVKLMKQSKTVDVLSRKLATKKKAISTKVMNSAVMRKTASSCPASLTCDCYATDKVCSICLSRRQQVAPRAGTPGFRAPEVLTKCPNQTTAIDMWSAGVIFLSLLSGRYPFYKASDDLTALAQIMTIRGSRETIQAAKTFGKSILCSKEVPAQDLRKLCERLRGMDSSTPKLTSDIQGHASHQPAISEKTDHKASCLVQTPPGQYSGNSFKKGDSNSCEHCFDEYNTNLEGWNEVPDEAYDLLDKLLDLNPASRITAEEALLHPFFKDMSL
Measured Metric: IC50 (µM)
Express your answer in µM, writing the number without its unit.

Query: For CN1C(=O)[C@@H](N2CCc3c(nn(Cc4ccccc4)c3Br)C2=O)COc2ccccc21 , write its IC50.
Reply: 1

---

Measured Metric: IC50

Query: Report IC50 from TRAF2 and NCK-interacting protein kinase (Homo sapiens) testing of CN1C(=O)[C@@H](N2CCc3c(nn(Cc4ccccc4)c3Br)C2=O)COc2ccccc21 [TP-030-2]
Reply: 1000 nM

---

biological target: UniProt:P24941; test: CDK2(CDK2CGS1) Takeda global kinase panel
Measured Metric: IC50 (nM)
Respond with the bare value in nM.

Query: Under UniProt:P24941: report IC50 of CN1C(=O)[C@@H](N2CCc3c(nn(Cc4ccccc4)c3Br)C2=O)COc2ccccc21 [TP-030-2] .
Reply: 1000

---

Molecular target: Serine/threonine-protein kinase NLK (Homo sapiens, UniProt Q9UBE8)
Sequence (Q9UBE8 whole entry): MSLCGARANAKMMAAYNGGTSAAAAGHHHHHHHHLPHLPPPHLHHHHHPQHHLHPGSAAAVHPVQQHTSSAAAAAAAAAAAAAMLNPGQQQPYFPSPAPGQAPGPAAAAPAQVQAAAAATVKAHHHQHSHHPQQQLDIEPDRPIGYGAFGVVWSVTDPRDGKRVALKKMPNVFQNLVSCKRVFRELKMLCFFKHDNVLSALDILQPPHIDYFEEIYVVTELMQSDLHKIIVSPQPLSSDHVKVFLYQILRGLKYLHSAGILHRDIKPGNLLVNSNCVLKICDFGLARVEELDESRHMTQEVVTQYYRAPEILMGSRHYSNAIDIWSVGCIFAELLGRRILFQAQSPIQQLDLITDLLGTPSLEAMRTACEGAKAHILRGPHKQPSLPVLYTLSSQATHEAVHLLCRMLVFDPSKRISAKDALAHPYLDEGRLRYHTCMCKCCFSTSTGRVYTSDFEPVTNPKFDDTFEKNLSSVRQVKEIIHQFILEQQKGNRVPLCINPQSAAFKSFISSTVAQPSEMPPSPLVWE
Measured Metric: IC50 (nM)
Write the answer as a number in nM, unit excluded.

Query: Entry CN1C(=O)[C@@H](N2CCc3c(nn(Cc4ccccc4)c3Br)C2=O)COc2ccccc21 [TP-030-2] needs its IC50 filled in; supply it.
Reply: 1000

---

Measured Metric: IC50 (nM)
Express it in nM; write the number only.

Query: Write down measured IC50 (Serine/threonine-protein kinase MRCK alpha (Homo sapiens, UniProt Q5VT25)) for this compound. CN1C(=O)[C@@H](N2CCc3c(nn(Cc4ccccc4)c3Br)C2=O)COc2ccccc21
Reply: 1000

---

Measured Metric: IC50 (nM)
Write it as a number; the unit nM goes unstated.

Query: Enter measured IC50, system Serine/threonine-protein kinase SIK1 (Homo sapiens, UniProt P57059), for the compound shown: CN1C(=O)[C@@H](N2CCc3c(nn(Cc4ccccc4)c3Br)C2=O)COc2ccccc21 [TP-030-2]
Reply: 1000

---

molecular target: Serine/threonine-protein kinase ULK3 (Homo sapiens, UniProt Q6PHR2)
Sequence (Q6PHR2 whole entry): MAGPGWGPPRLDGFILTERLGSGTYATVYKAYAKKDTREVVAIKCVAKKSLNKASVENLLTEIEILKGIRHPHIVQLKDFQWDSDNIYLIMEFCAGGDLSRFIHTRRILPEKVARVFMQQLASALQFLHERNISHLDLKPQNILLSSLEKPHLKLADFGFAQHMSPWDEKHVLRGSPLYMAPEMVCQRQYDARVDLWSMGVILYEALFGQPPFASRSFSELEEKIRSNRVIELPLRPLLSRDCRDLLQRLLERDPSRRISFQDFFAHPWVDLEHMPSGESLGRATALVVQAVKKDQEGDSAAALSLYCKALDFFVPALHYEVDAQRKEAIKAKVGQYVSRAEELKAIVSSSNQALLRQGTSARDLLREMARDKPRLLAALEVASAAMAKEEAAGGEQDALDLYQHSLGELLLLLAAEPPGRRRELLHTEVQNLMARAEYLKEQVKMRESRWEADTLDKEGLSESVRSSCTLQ
Measured Metric: IC50
Note: a bare number is incomplete; add the unit.

Query: Please look at CN1C(=O)[C@@H](N2CCc3c(nn(Cc4ccccc4)c3Br)C2=O)COc2ccccc21 [TP-030-2] and tell me its recorded IC50 on Serine/threonine-protein kinase ULK3 (Homo sapiens, UniProt Q6PHR2).
Reply: 1000 nM

---

target: PAS domain-containing serine/threonine-protein kinase (Homo sapiens)
Sequence (Q96RG2 whole entry, the tested form may be a part): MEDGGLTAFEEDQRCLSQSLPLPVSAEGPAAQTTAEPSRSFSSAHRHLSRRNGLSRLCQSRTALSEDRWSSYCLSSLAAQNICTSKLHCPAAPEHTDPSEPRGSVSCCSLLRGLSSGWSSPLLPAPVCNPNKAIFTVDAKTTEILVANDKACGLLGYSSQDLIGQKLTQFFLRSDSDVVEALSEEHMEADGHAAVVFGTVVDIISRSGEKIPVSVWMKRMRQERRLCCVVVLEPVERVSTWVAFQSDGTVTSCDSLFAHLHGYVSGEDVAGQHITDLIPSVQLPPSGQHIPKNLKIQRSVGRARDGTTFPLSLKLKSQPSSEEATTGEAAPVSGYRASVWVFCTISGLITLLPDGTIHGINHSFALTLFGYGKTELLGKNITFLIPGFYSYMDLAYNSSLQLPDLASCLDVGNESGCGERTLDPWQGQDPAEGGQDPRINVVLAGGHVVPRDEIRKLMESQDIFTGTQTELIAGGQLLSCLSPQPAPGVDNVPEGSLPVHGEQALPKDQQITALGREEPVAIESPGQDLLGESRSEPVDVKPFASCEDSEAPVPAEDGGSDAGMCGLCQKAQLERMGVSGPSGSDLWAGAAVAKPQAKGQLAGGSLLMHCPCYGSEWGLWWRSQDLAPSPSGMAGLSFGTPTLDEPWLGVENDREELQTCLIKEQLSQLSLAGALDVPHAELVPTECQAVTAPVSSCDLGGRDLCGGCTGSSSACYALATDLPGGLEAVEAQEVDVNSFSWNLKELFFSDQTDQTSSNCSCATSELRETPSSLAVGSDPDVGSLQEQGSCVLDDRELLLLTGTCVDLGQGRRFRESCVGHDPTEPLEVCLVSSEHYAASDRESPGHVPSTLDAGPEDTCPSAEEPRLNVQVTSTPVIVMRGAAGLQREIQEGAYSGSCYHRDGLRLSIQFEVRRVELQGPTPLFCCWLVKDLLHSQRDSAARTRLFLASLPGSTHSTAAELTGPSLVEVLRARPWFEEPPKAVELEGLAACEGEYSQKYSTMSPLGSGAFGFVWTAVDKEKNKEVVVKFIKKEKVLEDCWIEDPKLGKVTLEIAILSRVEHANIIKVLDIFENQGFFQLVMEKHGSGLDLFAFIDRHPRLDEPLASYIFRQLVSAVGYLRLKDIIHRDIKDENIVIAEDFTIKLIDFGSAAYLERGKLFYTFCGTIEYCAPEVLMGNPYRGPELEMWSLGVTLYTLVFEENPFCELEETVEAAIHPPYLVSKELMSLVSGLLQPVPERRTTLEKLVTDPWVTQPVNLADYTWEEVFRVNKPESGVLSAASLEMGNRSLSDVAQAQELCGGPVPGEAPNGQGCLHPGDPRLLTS
Measured Metric: IC50 (nM)
Note: unit nM is implicit; provide only the numeric part.

Query: Hello, please tell me recorded IC50 for this one: CN1C(=O)[C@@H](N2CCc3c(nn(Cc4ccccc4)c3Br)C2=O)COc2ccccc21
Reply: 1000

---

molecular target: L-type calcium channel, benzothiazepine site (Cav1.2 alpha-1C) (Homo sapiens); test: Inhibition of Calcium Channel L-Type, Benzothiazepine at 10 µM in the Eurofins-Panlabs radioligand binding assay (Eurofins_assay_214510); design: ligand concentration 2 nM, non-specific ligand with concentration 10 µM Diltiazem, incubation time 3h, incubation temperature 4 °C; settings: male, Wistar, rat, rat whole brain preparation, probe [3H] Diltiazem; compound concentration 10 uM; target entry is the homologue from another species
Measured Metric: inhibition at 3 h, 10 µM

Query: Give L-type calcium channel, benzothiazepine site (Cav1.2 alpha-1C) (Homo sapiens) inhibition at 3 h, 10 µM for the following molecule: CN1C(=O)[C@@H](N2CCc3c(nn(Cc4ccccc4)c3Br)C2=O)COc2ccccc21
Reply: 16% (not active)

---

Biological target: UniProtKB P29323
Sequence (P29323 whole entry): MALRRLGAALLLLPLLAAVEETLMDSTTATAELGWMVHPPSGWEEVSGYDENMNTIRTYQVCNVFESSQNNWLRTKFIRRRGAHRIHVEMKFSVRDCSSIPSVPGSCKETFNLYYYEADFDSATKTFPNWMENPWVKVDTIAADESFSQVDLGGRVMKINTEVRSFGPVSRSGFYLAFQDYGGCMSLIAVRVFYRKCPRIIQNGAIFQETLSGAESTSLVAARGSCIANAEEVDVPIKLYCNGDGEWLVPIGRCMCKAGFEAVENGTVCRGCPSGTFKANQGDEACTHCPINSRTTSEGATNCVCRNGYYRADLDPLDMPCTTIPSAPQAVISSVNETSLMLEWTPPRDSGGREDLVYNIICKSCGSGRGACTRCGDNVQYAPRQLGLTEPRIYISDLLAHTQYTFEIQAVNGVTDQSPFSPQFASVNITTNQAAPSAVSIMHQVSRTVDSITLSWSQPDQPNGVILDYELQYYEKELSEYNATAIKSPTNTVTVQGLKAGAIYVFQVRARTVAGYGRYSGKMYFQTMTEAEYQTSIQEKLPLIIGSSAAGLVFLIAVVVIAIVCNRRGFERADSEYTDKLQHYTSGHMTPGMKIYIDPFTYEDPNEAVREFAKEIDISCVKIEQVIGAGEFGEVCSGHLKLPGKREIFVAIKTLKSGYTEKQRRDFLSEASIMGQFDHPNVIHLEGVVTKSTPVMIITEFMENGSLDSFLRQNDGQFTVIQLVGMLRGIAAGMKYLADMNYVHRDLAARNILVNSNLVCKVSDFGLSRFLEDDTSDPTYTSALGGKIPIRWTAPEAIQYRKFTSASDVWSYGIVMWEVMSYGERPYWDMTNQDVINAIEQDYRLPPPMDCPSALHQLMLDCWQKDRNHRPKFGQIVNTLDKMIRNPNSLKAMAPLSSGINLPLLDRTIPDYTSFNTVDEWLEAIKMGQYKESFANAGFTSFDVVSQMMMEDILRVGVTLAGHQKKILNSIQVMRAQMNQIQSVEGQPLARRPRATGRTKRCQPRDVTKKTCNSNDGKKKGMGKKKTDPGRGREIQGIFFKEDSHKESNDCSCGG
Measured Metric: pIC50
Reminder that pIC50 means the negative base-10 logarithm of the concentration expressed in mol/L.

Query: Return reported pIC50. Input molecule: CN1C(=O)[C@@H](N2CCc3c(nn(Cc4ccccc4)c3Br)C2=O)COc2ccccc21 [TP-030-2]
Reply: 6.00

---

Measured Metric: pIC50
Please express pIC50 as -log10 of the molar concentration.

Query: Consider the molecule CN1C(=O)[C@@H](N2CCc3c(nn(Cc4ccccc4)c3Br)C2=O)COc2ccccc21 [TP-030-2] tested on Tyrosine-protein kinase Fer (Homo sapiens, UniProt P16591); state its pIC50.
Reply: 6.00

---

molecular target: 5'-AMP-activated protein kinase catalytic subunit alpha-1 (Homo sapiens); experiment: AMPKalpha1(PRA1PGF1) Takeda global kinase panel
Sequence (Q13131 whole entry): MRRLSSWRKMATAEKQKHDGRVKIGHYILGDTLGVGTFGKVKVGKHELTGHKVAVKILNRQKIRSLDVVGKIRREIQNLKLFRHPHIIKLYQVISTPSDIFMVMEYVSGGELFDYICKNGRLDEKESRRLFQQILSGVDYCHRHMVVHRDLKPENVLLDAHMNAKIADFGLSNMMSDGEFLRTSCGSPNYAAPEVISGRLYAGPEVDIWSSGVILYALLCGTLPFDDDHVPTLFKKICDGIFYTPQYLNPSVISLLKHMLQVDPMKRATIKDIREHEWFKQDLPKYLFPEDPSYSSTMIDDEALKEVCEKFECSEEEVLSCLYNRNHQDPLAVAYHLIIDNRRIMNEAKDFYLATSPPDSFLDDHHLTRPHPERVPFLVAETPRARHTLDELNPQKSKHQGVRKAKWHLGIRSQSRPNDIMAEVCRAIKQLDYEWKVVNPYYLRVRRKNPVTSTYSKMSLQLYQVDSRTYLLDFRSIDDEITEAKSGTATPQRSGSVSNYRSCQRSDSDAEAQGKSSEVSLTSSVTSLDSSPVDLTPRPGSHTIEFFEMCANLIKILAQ
Measured Metric: IC50 (nM)
Give a bare numeral; the unit nM is implied.

Query: Please indicate recorded IC50 of CN1C(=O)[C@@H](N2CCc3c(nn(Cc4ccccc4)c3Br)C2=O)COc2ccccc21 [TP-030-2] measured with 5'-AMP-activated protein kinase catalytic subunit alpha-1 (Homo sapiens).
Reply: 1000

---

molecular target: Inhibitor of nuclear factor kappa-B kinase subunit epsilon (Homo sapiens); assay: IKKepsilon(IKBELGY1) Takeda global kinase panel
Measured Metric: pIC50
Keep it numeric: pIC50 is minus log10 of the concentration in mol/L.

Query: For the compound CN1C(=O)[C@@H](N2CCc3c(nn(Cc4ccccc4)c3Br)C2=O)COc2ccccc21 , give its reported pIC50.
Reply: 6.00

---

Measured Metric: IC50
Quick note: unit goes after the number.

Query: Please report IC50 with Tyrosine-protein kinase BTK (Homo sapiens, UniProt Q06187) for item CN1C(=O)[C@@H](N2CCc3c(nn(Cc4ccccc4)c3Br)C2=O)COc2ccccc21 .
Sequence (Q06187 whole entry): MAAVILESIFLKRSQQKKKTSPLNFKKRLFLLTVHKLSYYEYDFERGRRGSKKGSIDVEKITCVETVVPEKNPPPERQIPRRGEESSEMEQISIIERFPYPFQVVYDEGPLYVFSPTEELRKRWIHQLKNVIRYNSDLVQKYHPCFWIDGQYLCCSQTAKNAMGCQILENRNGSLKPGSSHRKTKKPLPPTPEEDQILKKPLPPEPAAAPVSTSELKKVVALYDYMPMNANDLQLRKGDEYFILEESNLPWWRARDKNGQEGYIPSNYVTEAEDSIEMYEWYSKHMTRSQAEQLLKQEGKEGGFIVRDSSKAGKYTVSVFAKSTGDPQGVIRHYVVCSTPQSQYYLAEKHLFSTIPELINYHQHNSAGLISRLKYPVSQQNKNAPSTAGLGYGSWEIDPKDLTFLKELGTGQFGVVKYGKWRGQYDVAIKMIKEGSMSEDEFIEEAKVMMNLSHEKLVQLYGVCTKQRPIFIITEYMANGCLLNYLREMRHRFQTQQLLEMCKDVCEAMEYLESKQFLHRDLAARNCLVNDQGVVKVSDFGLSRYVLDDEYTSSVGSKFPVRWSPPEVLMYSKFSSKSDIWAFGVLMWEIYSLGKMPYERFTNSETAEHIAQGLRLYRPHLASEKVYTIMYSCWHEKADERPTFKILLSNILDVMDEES
Reply: 1000 nM
